Where do these numbers come from? They come from ChEMBL document CHEMBL6177960.

PROTOCOL: Metabolic stability in monkey hepatocytes assessed as hepatic extraction ratio at 2 uM measured up to 120 mins by LC-MS/MS analysis
EXPERIMENTAL_CONTEXT: rhesus monkey
ASSAY_ENDPOINT: hepatic extraction ratio at 2 h, 2 µM
Reply with the value as a number alone.

Would you mind telling me what hepatic extraction ratio at 2 h, 2 µM value was observed for C[C@H]1CCCN(Cc2cc3c(c(C(F)(F)F)c2)CN(c2cccc([C@]4(c5nncn5C)C[C@@H](C)C4)c2)C3=O)C1 ? 0.9

* * *

Entries annotated with measured CLint scaled at 2 h, 2 µM
PROTOCOL: in vitro
EXPERIMENTAL_CONTEXT: dog, hepatocytes
Give the number; mL/min/kg is assumed, so skip it.

Would you mind telling me what CLint scaled at 2 h, 2 µM value was observed for C[C@H]1CCCN(Cc2cc3c(c(C(F)(F)F)c2)CN(c2cccc([C@]4(c5nncn5C)C[C@@H](C)C4)c2)C3=O)C1 ? 50.8

Attention now shifts to the item below.
Would you mind telling me what CLint scaled at 2 h, 2 µM value was observed for C[C@H]1CCCN(Cc2cc3c(C(F)(F)F)cn(-c4cccc([C@]5(c6nncn6C)C[C@@H](C)C5)c4)c(=O)c3[nH]2)C1 ? 39.4
